Test: Cytotoxicity against human UCI101 cells after 48 hrs by alamar blue assay
Format: functional, cell-based
Conditions: UCI101, 48 h
Measured log10(IC50) of individual entries
Each number you see is log10 of IC50, and the unit inside the log is nM.

CCOc1cc(/C=C\c2ccc(OC)c(N)c2)cc(OC)c1 1.90
C=CCOc1cc(/C=C\c2ccc(OC)c(N)c2)cc(OC)c1 2.30
COc1ccc(/C=C\c2cc(OC)c(OC)c(OC)c2)cc1O 0.30
COc1cc(/C=C\c2ccc3[nH]ccc3c2)cc(OC)c1 2.40
COc1cc(/C=C\c2ccc3cc[nH]c3c2)cc(OC)c1 2.40
COc1cc(/C=C\c2ccc(OC)c(O)c2)cc(OC)c1 1.48
COc1cc(/C=C\c2ccc3c(ccn3C)c2)cc(OC)c1 1.60
COc1cc(/C=C\c2ccc(OC)c(N)c2)cc(OC(C)C)c1 2.00

Turning to the following compound.
log10(IC50) for CC[C@]1(O)C[C@H]2CN(CCc3c([nH]c4ccccc34)[C@@](C(=O)OC)(c3cc4c(cc3OC)N(C=O)[C@H]3[C@@](O)(C(=O)OC)[C@H](OC(C)=O)[C@]5(CC)C=CCN6CC[C@]43[C@@H]65)C2)C1 ? 1.30

Every entry's value here was drawn from ChEMBL document CHEMBL1140891.
